# assayTarget: human PDE2A1 (Homo sapiens (Human))
# testProtocol: PDE selectivity IMAP FP assay, human PDE2A1
# Assay type: biochemical
# condition: Human PDE2; Lab A; read-out: Human PDE2 Ki (nM) Lab A
# Method: Selectivity for PDE2, as compared to other PDE families, was assessed using the IMAP® technology. Human PDE10A2 enzyme was prepared from cytosolic fractions of transiently transfected HEK cells. A Labcyte POD 810 (Labcyte, Sunnyvale, Calif.) was used to dispense 200 nL from each well of the titration plate to make eleven copies of the assay plate for each titration, one copy for each PDE enzyme. […]
measurementLabel: log10 Ki (log10 of the value in nM)
Note the log scale: values are log10 of Ki expressed in nM.

CC(c1ccc(C(F)(F)F)cc1)n1nc(CC(F)(F)F)c2c(=O)[nH]c(O)nc21 (single isomer, unassigned) [Example 256] :: 2.10
Cc1ccc(C(C)n2nc(CF)c3c(=O)[nH]c(O)nc32)cc1 (centres unmarked) [Example 37] :: 1.64

Value sought for every listed compound: log10 Ki.
1. CC(c1ccc(C(F)(F)F)cc1)n1nc(CO)c2c(=O)[nH]c(O)nc21 (single isomer, unassigned) [Example 19]
2. CC(c1ccc(OC(F)(F)F)c(F)c1)n1nc(CF)c2c(=O)[nH]c(O)nc21 (centres unmarked) [Example 38]

1. 0.95
2. 0.45

----------
# assayTarget: UniProtKB O00408
# testProtocol: PDE selectivity IMAP FP assay, human PDE2A1
# Type: biochemical
# condition: Human PDE2; Lab B; read-out: Human PDE2 Ki (nM) Lab B
measurementLabel: Ki (nM)
Give bare numbers, in nM.

Value sought for every listed compound: Ki.
1. CC(C)C(c1ccc(C(F)(F)F)cc1)n1nc(CC(F)(F)F)c2c(=O)[nH]c(O)nc21 (single isomer, unassigned) [Example 240]
2. CC(C)(C)C(c1ccc(C(F)(F)F)c(F)c1)n1nc(CC(F)(F)F)c2c(=O)[nH]c(O)nc21 (single isomer, unassigned) [Example 246]

1. 8
2. 408

Value sought for every listed compound: Ki.
1. CC(C)C(c1ccc(C(F)(F)F)c(F)c1)n1nc(CF)c2c(=O)[nH]c(O)nc21 (single isomer, unassigned) [Example 56]
2. CC1CN(c2nc3c(c(CO)nn3[C@@H](C)c3ccc(C(F)(F)F)cc3)c(=O)[nH]2)C1 [Example 160]
3. CC(c1ccc(CC(F)(F)F)cc1)n1nc(CF)c2c(=O)[nH]c(N(C)C)nc21 (single isomer, unassigned) [Example 175]
4. CN(C)c1nc2c(c(CF)nn2C(c2ccc(C(F)(F)F)cc2)C2CC2)c(=O)[nH]1 (single isomer, unassigned) [Example 179]

37
1.6
0.39
0.072

Value sought for every listed compound: Ki.
1. CC(c1ccc(OC(F)(F)F)cc1F)n1nc(C(F)(F)F)c2c(=O)[nH]c(O)nc21 (single isomer, unassigned) [Example 307]
2. CC1(C(c2ccc(C(F)(F)F)c(F)c2)n2nc(CO)c3c(=O)[nH]c(O)nc32)CC1 (single isomer, unassigned) [Example 16]
3. CN(C)c1nc2c(c(CO)nn2C(c2ccc(C(C)(F)F)cc2)C2CC2)c(=O)[nH]1 (single isomer, unassigned) [Example 141]
4. C[C@@H](c1ccc(C(F)(F)F)cc1)n1nc(CO)c2c(=O)[nH]c(N3CC(F)(F)C3)nc21 [Example 159]
5. CC(c1ccc(C(F)(F)F)cc1)n1nc(CC(F)F)c2c(=O)[nH]c(O)nc21 (single isomer, unassigned) [Example 291]

10
702
0.56
2.3
2.5

Value sought for every listed compound: Ki.
1. CC(c1ccc(S(F)(F)(F)(F)F)cc1)n1nc(C(F)(F)F)c2c(=O)[nH]c(O)nc21 (single isomer, unassigned) [Example 312]
2. O=c1[nH]c(O)nc2c1c(C(F)F)nn2C(c1ccc(C(F)(F)F)cc1)C1CC1 (single isomer, unassigned) [Example 279]

265
1.9

----------
Hi there, I'd appreciate the recorded log10 Ki for every entry that follows.
# assayTarget: UniProt O00408
# testProtocol: PDE selectivity IMAP FP assay, human PDE2A1
# Assay type: biochemical
# condition: Human PDE2; Lab B; read-out: Human PDE2 Ki (nM) Lab B
Note the log scale: values are log10 of Ki expressed in nM.

Value sought for every listed compound: log10 Ki.
1. CN(C)c1nc2c(c(CO)nn2C(c2ccc(C(C)(F)F)cc2)C2CC2)c(=O)[nH]1 (single isomer, unassigned) [Example 140]
2. CCC(c1ccc(C(C)(F)F)c(F)c1)n1nc(CO)c2c(=O)[nH]c(N(C)C)nc21 (single isomer, unassigned) [Example 113]
3. CC(c1ccc(CC(F)(F)F)c(F)c1)n1nc(CO)c2c(=O)[nH]c(N(C)C)nc21 (single isomer, unassigned) [Example 100]
4. C[C@@H](c1ccc(S(F)(F)(F)(F)F)cc1)n1nc(CF)c2c(=O)[nH]c(O)nc21 [Example 50]
5. CC(C)C(c1ccc(C(F)F)c(F)c1)n1nc(CO)c2c(=O)[nH]c(N(C)C)nc21 (single isomer, unassigned) [Example 114]
6. CC(c1ccc(C(F)(F)F)cc1F)n1nc(CO)c2c(=O)[nH]c(N(C)C)nc21 (single isomer, unassigned) [Example 81]
7. CC(c1ccc(C(C)(C)C)cc1)n1nc(CO)c2c(=O)[nH]c(O)nc21 (stereo not shown) [Example 7]
8. CN(C)c1nc2c(c(CO)nn2C(c2ccc(C(C)(F)F)cc2F)C2CC2)c(=O)[nH]1 (single isomer, unassigned) [Example 352]

1: -1.15; 2: -1.24; 3: -0.06; 4: 0.85; 5: -0.10; 6: -0.54; 7: 1.77; 8: 0.08

----------
Hi there, I'd appreciate the recorded Ki for every entry that follows.
# assayTarget: Rhesus PDE2A3 (Macaca mulatta)
# Sequence (B3VTJ2 1-941): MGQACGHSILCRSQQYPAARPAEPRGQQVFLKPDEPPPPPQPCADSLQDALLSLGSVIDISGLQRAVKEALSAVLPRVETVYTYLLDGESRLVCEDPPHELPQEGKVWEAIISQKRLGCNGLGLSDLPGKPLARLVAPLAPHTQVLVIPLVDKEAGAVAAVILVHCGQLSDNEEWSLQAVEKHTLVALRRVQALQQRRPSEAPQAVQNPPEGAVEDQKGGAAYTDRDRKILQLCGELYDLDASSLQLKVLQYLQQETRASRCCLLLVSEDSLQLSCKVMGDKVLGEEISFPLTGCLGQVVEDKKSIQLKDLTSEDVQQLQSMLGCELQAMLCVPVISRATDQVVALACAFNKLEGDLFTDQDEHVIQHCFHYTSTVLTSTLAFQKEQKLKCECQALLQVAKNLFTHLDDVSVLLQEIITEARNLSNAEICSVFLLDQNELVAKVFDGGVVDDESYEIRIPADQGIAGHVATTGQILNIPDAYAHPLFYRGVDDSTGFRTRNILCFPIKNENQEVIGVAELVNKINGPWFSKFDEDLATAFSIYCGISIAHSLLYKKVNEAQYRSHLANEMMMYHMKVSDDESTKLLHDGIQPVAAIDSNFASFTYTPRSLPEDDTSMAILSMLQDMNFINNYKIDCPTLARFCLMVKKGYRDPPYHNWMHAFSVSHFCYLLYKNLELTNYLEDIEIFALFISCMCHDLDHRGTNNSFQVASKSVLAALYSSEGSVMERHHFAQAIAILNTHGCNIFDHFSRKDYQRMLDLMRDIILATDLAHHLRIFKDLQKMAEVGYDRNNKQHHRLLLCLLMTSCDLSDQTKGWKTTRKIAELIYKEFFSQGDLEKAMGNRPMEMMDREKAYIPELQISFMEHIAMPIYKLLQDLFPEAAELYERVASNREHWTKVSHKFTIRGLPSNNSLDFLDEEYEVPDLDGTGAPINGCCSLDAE
# testProtocol: PDE2 fluorescence polarization (IMAP FP) assay, rhesus PDE2A3
# Assay type: biochemical, rhesus macaque
# condition: Lab B, read-out: Rhesus PDE2 Ki (nM) Lab B
Give bare numbers, in nM.

CC(c1ccc(OC(F)(F)F)c(F)c1)n1nc(CO)c2c(=O)[nH]c(N(C)C)nc21 (single isomer, unassigned) [Example 85] :: 0.3
O=c1[nH]c(O)nc2c1c(CC(F)(F)F)nn2C(c1ccc(C(F)(F)F)c(F)c1)C1CC1 (single isomer, unassigned) [Example 239] :: 166

Report measured Ki; entry is CN(C)c1nc2c(c(CO)nn2C(c2ccc(C(F)(F)F)c(F)c2)C2CC2)c(=O)[nH]1 (single isomer, unassigned) [Example 150]
0.12

----------
# assayTarget: human PDE2A1 (Homo sapiens (Human), UniProt O00408)
# Sequence (O00408 other isoform, or with tags, fused parts or gaps): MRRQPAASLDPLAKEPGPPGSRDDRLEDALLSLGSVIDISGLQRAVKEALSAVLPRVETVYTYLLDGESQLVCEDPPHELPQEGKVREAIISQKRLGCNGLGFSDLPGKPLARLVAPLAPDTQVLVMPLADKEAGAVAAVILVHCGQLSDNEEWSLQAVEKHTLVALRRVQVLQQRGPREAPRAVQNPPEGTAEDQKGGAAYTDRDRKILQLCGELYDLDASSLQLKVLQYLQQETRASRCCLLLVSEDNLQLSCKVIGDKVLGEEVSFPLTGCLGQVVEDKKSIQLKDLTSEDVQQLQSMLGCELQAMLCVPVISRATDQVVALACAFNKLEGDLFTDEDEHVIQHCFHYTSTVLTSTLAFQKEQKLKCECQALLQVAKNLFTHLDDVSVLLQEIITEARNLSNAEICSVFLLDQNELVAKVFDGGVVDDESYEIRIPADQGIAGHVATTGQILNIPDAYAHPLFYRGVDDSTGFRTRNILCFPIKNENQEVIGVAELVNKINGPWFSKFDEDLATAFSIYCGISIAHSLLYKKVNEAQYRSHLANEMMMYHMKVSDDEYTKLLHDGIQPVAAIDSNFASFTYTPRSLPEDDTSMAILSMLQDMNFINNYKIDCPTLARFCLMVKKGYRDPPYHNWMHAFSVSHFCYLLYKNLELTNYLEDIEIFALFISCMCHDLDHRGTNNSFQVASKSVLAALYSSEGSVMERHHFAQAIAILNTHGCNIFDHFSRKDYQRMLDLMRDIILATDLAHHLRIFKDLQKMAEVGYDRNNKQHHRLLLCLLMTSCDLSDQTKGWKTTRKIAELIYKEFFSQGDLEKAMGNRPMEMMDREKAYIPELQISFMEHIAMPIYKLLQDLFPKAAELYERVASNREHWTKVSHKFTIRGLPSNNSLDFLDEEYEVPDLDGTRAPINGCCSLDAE
# testProtocol: PDE selectivity IMAP FP assay, human PDE2A1
# Format: biochemical
# condition: Human PDE2; Lab B; read-out: Human PDE2 Ki (nM) Lab B
Hi there, I'd appreciate the recorded Ki for every entry that follows.
Put down the number, then write its unit next to it.

The examples below pair each entry with its known result.
CC(c1ccc(C(C)(F)F)cc1)n1nc(C(F)(F)F)c2c(=O)[nH]c(O)nc21 (single isomer, unassigned) [Example 318] :: 3 nM
CC(c1ccc(C(F)(F)F)cc1)n1nc(C(F)(F)F)c2c(=O)[nH]c(O)nc21 (single isomer, unassigned) [Example 255] :: 2.4 nM
CC(c1ccc(OC(F)(F)F)c(F)c1)n1nc(C(F)F)c2c(=O)[nH]c(O)nc21 (single isomer, unassigned) [Example 287] :: 38 nM
CN(C)c1nc2c(c(CF)nn2C(c2ccc(OC(F)F)c(F)c2)C2CC2)c(=O)[nH]1 (single isomer, unassigned) [Example 189] :: 0.35 nM
O=c1[nH]c(O)nc2c1c(CF)nn2C(c1ccc(C(F)(F)F)cc1)C1CC1 (stereo not shown) :: 6.3 nM
CC(C)C(c1ccc(C(F)(F)F)cc1)n1nc(CF)c2c(=O)[nH]c(N(C)C)nc21 (single isomer, unassigned) [Example 163] :: 0.056 nM
CC(c1ccc(OC(F)(F)F)c(F)c1)n1nc(C(F)(F)F)c2c(=O)[nH]c(O)nc21 (single isomer, unassigned) [Example 310] :: 36 nM
CCC(c1ccc(C(F)(F)F)cc1)n1nc(C(F)(F)F)c2c(=O)[nH]c(O)nc21 (single isomer, unassigned) [Example 332] :: 3.3 nM

Value sought for every listed compound: Ki.
1. CSc1nc2c(c(CO)nn2[C@@H](C)c2ccc(C(F)(F)F)cc2)c(=O)[nH]1
2. CC(C)C(c1ccc(C(C)(F)F)cc1)n1nc(CF)c2c(=O)[nH]c(N(C)C)nc21 (single isomer, unassigned) [Example 207]
3. CN(C)c1nc2c(c(CO)nn2C(c2ccc(C(F)(F)F)cc2)C2CC2)c(=O)[nH]1 (single isomer, unassigned) [Example 75]
4. CC(C)C(c1ccc(C(F)F)c(F)c1)n1nc(CO)c2c(=O)[nH]c(N(C)C)nc21 (single isomer, unassigned) [Example 115]
5. CC(C)C(c1ccc(C(F)(F)F)c(F)c1)n1nc(CF)c2c(=O)[nH]c(N(C)C)nc21 (single isomer, unassigned)

1.8 nM
0.03 nM
1.1 nM
0.21 nM
0.046 nM
